- measurement.notes: folding stability dG unfold from chymotrypsin proteolysis; higher = more stable
reported.property: folding stability dG unfold (kcal/mol)
Provide only the numeric value, understood in kcal/mol.

Example entries and their recorded answers appear below.
SAGGSAGGSAGGKIKLTVEKTEDGYLRVTAEDEDTKETVVITLPKGTTLEEALKLLKELSAGGSAGGSAGGS [r10_825_TrROS_Hall] | 3.08
SAGGSAGGSDPTPVVVEFPFSSEEEAEKKAKEAAEKLKAEGVDIKEVKIEYDPEKGTVTLTLGSAGGSAGGS [r20_155_JUSTAS] | 1.07
SAGGSAGGSKEFKVEEVGGRLYITFPDGTVVEVRFDKPVTFDLKTGKLYFPEGAEVEKRRLKESAGGSAGGS [r20_158_TrROS_Hall] | 1.19
GKYYLVNIVVVNEDNKSLVFPKVFPENDPEKVLEEIKKLLEELGFKAKKLITVFEKLPDGNVLVNAVVEVGS [r1_281_TrMRF] | 5.63
SAGGSAGGSAGGSMKIYKITVKKEDSELEFYVSDDVPAEVAANILKALYPDVEVKIEEGSAGGSAGGSAGGS [r4_155_TrMRF] | 1.1

Given the sequence SAGGSAGGSAEVEIEFVSYDPSTGRLVRKRVKLKLLPDPKGGPVEVVEVEVDPGGPVPAGASAGGSAGGSAG [r3_397_TrMRF] , what is its reported folding stability dG unfold?
2.08

Given the sequence SPNLKPVEFPIKIPGYKIRRVSIWKSPDGPVEIFVRFPDGWYYEFEIPPNGDIQPMKITEAVPPDEDKKNSA [r9_1075_TrROS] , what is its reported folding stability dG unfold?
1.14

---

- measurement.notes: folding stability dG unfold from chymotrypsin proteolysis; higher = more stable
folding stability dG unfold overview
Provide only the numeric value, understood in kcal/mol.

Example entries and their recorded answers appear below.
SAHTISIRIPPNMKPITAEELKKEPGYEVKDINVYPNEDGNMYFTIEVEPGMPPKKMDEILERIRDRMGSAG [r14_421_TrROS] | 0.911
SAGGSAGGMTKDDIIEKLKKEYPDKDVKVLKVEESVLPSGKILAKVTLEFPEEGKTFEKTFEVESAGGSAGG [r6_572_JUSTAS] | 2.69
SFNISVSVEPDDDKYKVTIWIQVDPEEFPGQPPTPSVIEEIARELARDWGIKEVEIEPPPNGYYRHTFPLSA [r9_883_TrROS] | 2.25

Given the sequence SAGGSAGGSVKITTEPDPNGYYRVTVTIRLNDKPIPVDMPFPPGKTPDQVKEKARDIAKELLKSAGGSAGGS [r12_69_TrROS] , what is its reported folding stability dG unfold?
0.546

---

folding stability dG unfold overview
- measurement.notes: folding stability dG unfold from trypsin proteolysis; higher = more stable

Example entries and their recorded answers appear below.
SAGGMGSEKLPLTLTLPGDRKLEVTVYRVGDKLYVEIKLTHGSKPLGTLTVEADSLDEVLDAAKEAASAGGS [r16_55_TrMRF] | 11.6 kJ/mol
SAGGMEEILKKLGVKKGDKVKIKIKVEKDGKTETVEIEVPVENLEDILKKLGLSKDQVKITEIKVEKESAGG [r13_681_TrROS_Hall] | 9.07 kJ/mol
SAGGDLIERVAKELMEKFPMKPGEPRPITIEIPYPDGYRIKVDIPVRVNPDNGEFRFKFDIKEIEPWSAGGS [r16_634_TrROS] | 4.26 kJ/mol
SAGGMELEKAIEFAKETGKEVEIEIEVEDENGKPFVIRVRVKVKPDPEDPNKYKIEVEVEVFPKEELSAGGS [r16_323_TrMRF] | 15.1 kJ/mol
SKPGDKLEEVTIKIYNPGNGRPREITIEKHEDGWRAQVMNPPGQTKEIPPNDTLEDLLNLPPNYYIEIIPSA [r9_781_TrROS] | -1.13 kJ/mol
SAGGSAGGSAGMVITKDPNGNYTVDLVLPDGTPLDSGTITLEEVEKILKERGIPLKEIFGSAGGSAGGSAGG [r11_521_JUSTAS] | -1.13 kJ/mol
SAGGAPSSFSTSSDPDGTQLLVVTEPGSGKPRTVRIPPGLNEAVTIPPSRSVSSVELVRVSPASPALLSAGG [r13_122_JUSTAS] | -4.84 kJ/mol
SAKYKIIEAKPGKNVVTITVEYTLPNGEKLTKPIPINAINPVIVEVSEDSITIYDPNNGKLITFPAEKLSAG [r14_947_TrMRF] | 8.77 kJ/mol

Given the sequence SAGGSAGGSAMTTVTSTTEIPPSALTVKTSVSTAPDGSLVETTTVVLPDGSVVTTTLSTVASAGGSAGGSAG [r3_7_JUSTAS] , what is its reported folding stability dG unfold?
4.08 kJ/mol

Given the sequence SAGGSAGGLPPGQSIEIFIFSMFPTPNGNLNLEMIQITIRIRPVVRKPDNGGEKYVPPDDPDLASAGGSAGG [r6_405_TrROS] , what is its reported folding stability dG unfold?
12 kJ/mol

Given the sequence SAPKLEIEEVHVNPNDGMVMITFQIDNLPPGLKITIKPKNGKPRRWTGEPGKPIMFMIPPGVDDIEIEWSAG [r14_671_TrROS] , what is its reported folding stability dG unfold?
6.86 kJ/mol

Given the sequence SAGGSAPSPEVPLWRFEAPGASGGVALIEGYPGGELRVVFFTDDGRPVELTFPVVVLPPAPLEELFSAGGSA [r15_478_TrMRF] , what is its reported folding stability dG unfold?
6.3 kJ/mol

Given the sequence SAGGSAGGSGMEEAIEKAKKEILEKNPDLPPNAVVNEPILVKDPSTDEEYVIPVTFTIPENNLSAGGSAGGS [r12_591_JUSTAS] , what is its reported folding stability dG unfold?
-0.572 kJ/mol

Given the sequence GLEVKVDITVDPVGGGTRIPVTVSVPGRPIAQATADVDPETGVVNLDLGAESEEERKAALEKLKEAGIKLGS [r1_455_JUSTAS] , what is its reported folding stability dG unfold?
4.59 kJ/mol
